// provenance: the supplement of paper PMC5662764

# Tested on: SKBR3
# method: normalised growth rate inhibition (GR value) relative to DMSO control (GR (1 = untreated growth, 0 = cytostasis, <0 = cytotoxic)); higher = less growth inhibition
# protocol_conditions: 10 µM; 72 h
Decide by normalised growth rate inhibition: equal to or exceeding 0.2 means y, less means n.

*Q* normalised growth rate inhibition >= 0.2 for Nc1ccc(-c2ccc3ncc4ccc(=O)n(-c5cccc(C(F)(F)F)c5)c4c3c2)cn1 ?
*A* n

*Q* normalised growth rate inhibition >= 0.2 for NC(=O)Nc1cc(-c2cccc(F)c2)sc1C(=O)N[C@H]1CCCNC1 ?
*A* n

*Q* normalised growth rate inhibition >= 0.2 for C#Cc1cccc(Nc2ncnc3cc(OCCOC)c(OCCOC)cc23)c1 ?
*A* n

*Q* normalised growth rate inhibition >= 0.2 for CS(=O)(=O)N1CCN(Cc2cc3nc(-c4cccc5[nH]ncc45)nc(N4CCOCC4)c3s2)CC1 ?
*A* n

*Q* normalised growth rate inhibition >= 0.2 for COc1cc(OC)cc(-c2ccc3ncc4ccc(=O)n(-c5ccc(N6CCNCC6)c(C(F)(F)F)c5)c4c3c2)c1 ?
*A* n

*Q* normalised growth rate inhibition >= 0.2 for O=c1[nH]c2ccccc2n1C1CCN(Cc2ccc(-c3[nH]c4cc5ncnc5cc4nc3-c3ccccc3)cc2)CC1 ?
*A* y

*Q* normalised growth rate inhibition >= 0.2 for Nc1ccc(C(=O)Nc2cccc(-c3nc(N4CCOCC4)c4oc5ncccc5c4n3)c2)cn1 ?
*A* n

*Q* normalised growth rate inhibition >= 0.2 for Cc1cc2c(F)c(Oc3ncnn4cc(OC[C@@H](C)O)c(C)c34)ccc2[nH]1 ?
*A* y

*Q* normalised growth rate inhibition >= 0.2 for COc1cc(N2CCC(N3CCN(C)CC3)CC2)ccc1Nc1ncc(Cl)c(Nc2ccccc2S(=O)(=O)C(C)C)n1 ?
*A* n

*Q* normalised growth rate inhibition >= 0.2 for Cn1cnc2c(F)c(Nc3ccc(Br)cc3Cl)c(C(=O)NOCCO)cc21 ?
*A* y
